Target: Human BCL-XL protein (N-terminal HiBiT tagged BCL-XL expressed in HT1080 cells) (Homo sapiens)
Construct: expressed in transfected cells; host or cells: HT-1080 (ATCC CCL-121), stably transduced with lentivirus pLV-UBC-N-HiBiT-BCL-XL-PGK-puro and selected with puromycin
Sequence (Q07817 whole entry): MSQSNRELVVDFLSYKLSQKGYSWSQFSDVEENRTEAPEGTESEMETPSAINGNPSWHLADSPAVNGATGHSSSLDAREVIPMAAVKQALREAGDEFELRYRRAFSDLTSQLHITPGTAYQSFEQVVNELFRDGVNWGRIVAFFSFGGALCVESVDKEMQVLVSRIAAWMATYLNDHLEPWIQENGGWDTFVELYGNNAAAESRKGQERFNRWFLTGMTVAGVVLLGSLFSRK
Test: HiBiT Based Degradation Assay
Type: cell-based
Conditions: bottom of BCL-XL degradation curve (remaining HiBiT-BCL-XL signal vs DMSO control), HT1080 cells, 24 hours incubation
ASSAY_ENDPOINT: Ymin (24 h)

Guide cases for Ymin (24 h), answers given:
Cc1c(OC[C@H]2C[C@H]2CC2CCN(CC(=O)Nc3ccc4c(C5CCC(=O)NC5=O)nn(C)c4c3)CC2)cccc1-c1ccc(N2CCc3cccc(C(=O)Nc4nc5ccccc5s4)c3C2)nc1C(=O)O (single isomer, unassigned) [Compound 1004d]: B (30% ≤ Ymin < 50%)
Cn1nc(C2CCC(=O)NC2=O)c2ccc(NC(=O)CN3CCC4(CC3)CC(COc3ccc(-c5ccc(N6CCc7cccc(C(=O)Nc8nc9ccccc9s8)c7C6)nc5C(=O)O)c(C(F)(F)F)c3)C4)c(F)c21 (stereo not drawn): B (30% ≤ Ymin < 50%)
Cc1c(OCCN2CCCC23CCN(CC(=O)Nc2ccc4c(C5CCC(=O)NC5=O)nn(C)c4c2)CC3)cccc1-c1ccc(N2CCc3cccc(C(=O)Nc4nc5ccccc5s4)c3C2)nc1C(=O)O (stereo not drawn): B (30% ≤ Ymin < 50%)
Cn1nc(C2CCC(=O)NC2=O)c2ccc(NC(=O)CN3CCC(CCCOc4ccc(-c5ccc(N6CCc7cccc(C(=O)Nc8nc9ccccc9s8)c7C6)nc5C(=O)O)c(F)c4)CC3)cc21 (stereo not drawn): A (Ymin < 30%)

Next compound, Ymin (24 h) to be filled in.
Summary for this compound, Cn1nc(C2CCC(=O)NC2=O)c2ccc(NC(=O)CN3CCC4(CCC(Oc5ccc(-c6ccc(N7CCc8cccc(C(=O)Nc9nc%10ccccc%10s9)c8C7)nc6C(=O)O)c(C(F)(F)F)c5)CC4)CC3)cc21 (stereo not drawn) : Ymin (24 h) is B (30% ≤ Ymin < 50%)
